Target: serotoninergic 5-HT7 receptor (Homo sapiens, UniProt P34969)
Sequence (P34969 whole entry): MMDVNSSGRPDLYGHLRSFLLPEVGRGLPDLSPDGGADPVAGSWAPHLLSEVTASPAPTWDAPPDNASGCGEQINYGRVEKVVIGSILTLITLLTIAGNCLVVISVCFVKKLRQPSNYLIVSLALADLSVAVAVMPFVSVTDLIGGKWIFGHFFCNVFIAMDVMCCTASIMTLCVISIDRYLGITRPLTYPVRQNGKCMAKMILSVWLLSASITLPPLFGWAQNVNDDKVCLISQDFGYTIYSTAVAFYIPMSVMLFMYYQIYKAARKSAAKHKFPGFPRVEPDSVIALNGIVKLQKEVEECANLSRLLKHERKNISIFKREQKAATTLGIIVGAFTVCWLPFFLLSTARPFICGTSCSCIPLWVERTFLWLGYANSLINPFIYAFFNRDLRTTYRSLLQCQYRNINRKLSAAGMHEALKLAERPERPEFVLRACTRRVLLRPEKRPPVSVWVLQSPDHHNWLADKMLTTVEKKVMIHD
Assay: Binding assay 5-HT7 (h), [3H]LSD, CHO cells
Design: expressed in transfected cells; host or cells: CHO cells
Conditions: read-out: 5-HT7
Tick Satisfied if inhibition at 1 µM is 90% or greater. Tick Not satisfied if inhibition at 1 µM is less than 90%.

> print(dat)
                           smiles.structure  discrete.label
1  O=S(=O)(NCCCCN1CCN(c2noc3ccccc23)CC1)c1cccc(C(F)(F)F)c1       Satisfied

INPUT: Decide: is the reported value of inhibition at 1 µM for O=S(=O)(NCCCN1CCN(c2nsc3ccccc23)CC1)c1ccc2ccccc2c1 equal to or greater than 90%?
OUTPUT: Satisfied

INPUT: Test whether the molecule O=S(=O)(NCCCCN1CCN(c2noc3ccccc23)CC1)c1c[nH]c2ncccc12 records inhibition at 1 µM of 90% or higher.
OUTPUT: Satisfied

INPUT: Is the recorded value of inhibition at 1 µM equal to or greater than 90% for this molecule? Cc1cc(S(=O)(=O)NCCCCN2CCC(c3noc4cc(F)ccc34)CC2)c(C)s1
OUTPUT: Not satisfied

INPUT: hey, is inhibition at 1 µM for this one >= 90%? O=S(=O)(NCCCCN1CCC(c2noc3cc(F)ccc23)CC1)c1csc2ccccc12
OUTPUT: Satisfied

----------
Biological target: dopaminergic D2 receptor (Homo sapiens, UniProt P14416)
Sequence (P14416 1-414 isoform P14416-2): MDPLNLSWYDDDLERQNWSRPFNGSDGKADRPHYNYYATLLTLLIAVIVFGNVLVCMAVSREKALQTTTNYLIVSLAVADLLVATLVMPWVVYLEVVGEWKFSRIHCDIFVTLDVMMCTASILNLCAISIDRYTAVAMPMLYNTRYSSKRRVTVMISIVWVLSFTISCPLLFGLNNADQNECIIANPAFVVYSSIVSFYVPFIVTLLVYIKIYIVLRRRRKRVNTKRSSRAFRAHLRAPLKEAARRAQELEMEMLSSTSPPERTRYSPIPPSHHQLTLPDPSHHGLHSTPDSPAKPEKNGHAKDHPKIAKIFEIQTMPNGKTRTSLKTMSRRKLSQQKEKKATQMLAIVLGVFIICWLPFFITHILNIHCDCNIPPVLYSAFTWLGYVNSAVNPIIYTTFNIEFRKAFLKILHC
Assay: Binding assay D2S (h), [3H]methyl-spiperone, HEK-293 cells
Design: expressed in transfected cells; host or cells: HEK-293 cells
Settings: read-out: D2 [%]
Overview of reported inhibition at 1 µM across a group of molecules:
# unit: % | format: bare number

Examples with their reported inhibition at 1 µM follow.
> print(dat)
                           smiles.structure                               test.target  reported
1  Cc1cccc(S(=O)(=O)NCCN2CCN(c3nsc4ccccc34)CC2)c1  dopaminergic D2 receptor (Homo sapiens, UniProt P14416)        89
2  Cc1cccc(S(=O)(=O)NCCCN2CCC(c3noc4cc(F)ccc34)CC2)c1  dopaminergic D2 receptor (Homo sapiens, UniProt P14416)        96
3  O=C1COc2c(cccc2N2CCN(CCCCNS(=O)(=O)c3ccc(C(F)(F)F)cc3)CC2)N1  dopaminergic D2 receptor (Homo sapiens, UniProt P14416)        61

INPUT: I have this molecule here, O=S(=O)(NCCCCN1CCN(c2nsc3ccccc23)CC1)c1ccc(Br)cc1 , and I need its recorded inhibition at 1 µM.
OUTPUT: 101

----------
Target: muscarinic M3 receptor (Homo sapiens)
Construct: expressed in transfected cells; host or cells: CHO cells
Sequence (P20309 whole entry): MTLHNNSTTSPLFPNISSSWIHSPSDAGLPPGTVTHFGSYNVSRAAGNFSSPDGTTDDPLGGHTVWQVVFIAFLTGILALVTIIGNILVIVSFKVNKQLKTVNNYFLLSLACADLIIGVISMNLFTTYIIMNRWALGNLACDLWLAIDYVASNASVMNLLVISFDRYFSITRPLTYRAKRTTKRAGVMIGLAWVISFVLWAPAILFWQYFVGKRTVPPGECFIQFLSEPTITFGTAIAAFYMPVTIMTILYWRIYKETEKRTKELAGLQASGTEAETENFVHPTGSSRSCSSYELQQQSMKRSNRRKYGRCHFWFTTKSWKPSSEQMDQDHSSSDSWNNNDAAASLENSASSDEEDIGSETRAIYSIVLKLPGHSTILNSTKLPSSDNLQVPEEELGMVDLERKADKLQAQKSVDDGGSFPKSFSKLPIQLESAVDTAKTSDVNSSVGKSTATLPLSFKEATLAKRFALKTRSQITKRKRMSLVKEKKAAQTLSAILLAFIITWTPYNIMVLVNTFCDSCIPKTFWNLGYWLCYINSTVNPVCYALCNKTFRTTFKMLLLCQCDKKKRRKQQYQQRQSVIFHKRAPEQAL
Assay: Binding assay M3 (h), [3H]4-DAMP, CHO cells
Conditions: read-out: M3 [%]
Method: The specific ligand binding to the receptors is defined as the difference between the total binding and the nonspecific binding determined in the presence of an excess of so unlabelled ligand. The specific Ligand binding to the receptor is defined as the difference between total and non-specific binding determined in the presence of an excess of unlabelled ligand. The compounds were tested at a concentration of 1×10^−6 M, and scintillation counting was the method of detection of ligand binding.
List of inhibition at 1 µM values.
Use % as the unit, but write only the number.

INPUT: Item O=c1[nH]c2cccc(N3CCN(CCCNS(=O)(=O)c4cccc(F)c4)CC3)c2[nH]1 [Compound 176] has what recorded inhibition at 1 µM?
OUTPUT: 6

INPUT: Which value of inhibition at 1 µM has been reported for O=S(=O)(NCCCN1CCC(c2noc3cc(F)ccc23)CC1)c1cccc2ccccc12 [Compound 20] in the records?
OUTPUT: -9

INPUT: Request the reported inhibition at 1 µM associated with O=S(=O)(NCCCCN1CCN(c2nsc3ccccc23)CC1)c1ccc2c(c1)OCO2 [Compound 245]
OUTPUT: 25

INPUT: Endpoint output: inhibition at 1 µM of O=S(=O)(NCCCCN1CCN(c2nsc3ccccc23)CC1)c1ccc2cc(Cl)ccc2c1 [Compound 61] . Value?
OUTPUT: 5

INPUT: Need inhibition at 1 µM, item Cc1c(S(=O)(=O)NCCCCN2CCN(c3noc4ccccc34)CC2)sc2ccc(F)cc12 [Compound 81]
OUTPUT: 6

INPUT: What does the record list as inhibition at 1 µM for O=S(=O)(NCCCN1CCN(c2nsc3ccccc23)CC1)c1ccc(C(F)(F)F)cc1 [Compound 257] ?
OUTPUT: 12

INPUT: Consider the compound shown here: O=S(=O)(NCCCCN1CCC(c2noc3cc(F)ccc23)CC1)c1csc2ccccc12 [Compound 313] What is its recorded inhibition at 1 µM?
OUTPUT: 25

INPUT: I have this compound here, Cc1cccc(S(=O)(=O)NCCCCN2CCN(c3noc4ccccc34)CC2)c1 [Compound 15] , and I need its recorded inhibition at 1 µM.
OUTPUT: -9

----------
Reported activation at 1 µM values are given for each entry in this list.
Molecular target: dopaminergic D3 receptor (Homo sapiens, UniProt P35462)
Sequence (P35462 whole entry): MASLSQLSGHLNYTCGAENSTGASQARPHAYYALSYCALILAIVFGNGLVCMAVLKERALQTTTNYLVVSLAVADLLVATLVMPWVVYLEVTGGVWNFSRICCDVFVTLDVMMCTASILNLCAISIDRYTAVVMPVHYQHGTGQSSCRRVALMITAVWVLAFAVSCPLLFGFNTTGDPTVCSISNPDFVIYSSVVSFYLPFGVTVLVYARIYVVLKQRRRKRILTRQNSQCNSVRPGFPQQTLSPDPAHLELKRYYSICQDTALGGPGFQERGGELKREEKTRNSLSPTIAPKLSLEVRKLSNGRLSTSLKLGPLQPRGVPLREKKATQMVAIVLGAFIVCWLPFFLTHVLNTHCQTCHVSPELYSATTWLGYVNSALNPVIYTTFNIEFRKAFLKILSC
Assay: Cellular functional assay, dopaminergic D3 receptor (agonism/antagonism)
Assay type: cell-based
Settings: agonist effect, percent of control specific agonist response (300 nM dopamine for control); 1×10^−6 M; D3 (h), CHO cells; read-out: D3-ag [%]
Quick reminder: number only, in %, skip the unit.

The cases that follow already have their activation at 1 µM on record.
> print(dat)
                                   compound   quantity.measured  reported
1  O=S(=O)(NCCCCN1CCN(c2nsc3ccccc23)CC1)c1cccc2ccccc12 [Compound 1]  activation at 1 µM       -17
2  O=S(=O)(NCCCCN1CCN(c2nsc3ccccc23)CC1)c1ccc2cc(Cl)ccc2c1 [Compound 61]  activation at 1 µM         4
3  O=S(=O)(NCCCN1CCC(c2noc3cc(F)ccc23)CC1)c1ccc2cc(Cl)ccc2c1 [Compound 98]  activation at 1 µM       -10
4  O=S(=O)(NCCCCN1CCN(c2noc3ccccc23)CC1)c1ccc2ccccc2c1 [Compound 14]  activation at 1 µM       -15

INPUT: Entry Cc1c(S(=O)(=O)NCCCN2CCC(c3noc4cc(F)ccc34)CC2)sc2ccc(F)cc12 [Compound 102] has what activation at 1 µM?
OUTPUT: 4

INPUT: Dear colleague, I am looking for the recorded activation at 1 µM of the following compound: O=S(=O)(NCCCCN1CCN(c2noc3ccccc23)CC1)c1ccc2cc(Cl)ccc2c1 [Compound 79]
OUTPUT: -9

INPUT: # get_value(readout='activation at 1 µM', item= O=S(=O)(NCCCCN1CCN(c2cccc3[nH]ccc23)CC1)c1ccc(F)cc1 [Compound 359] )
OUTPUT: 25

INPUT: Suppose we examine the compound O=S(=O)(NCCCN1CCC(c2noc3cc(F)ccc23)CC1)c1ccc2cn[nH]c2c1 [Compound 352] ; what activation at 1 µM value has been reported?
OUTPUT: -18

----------
Molecular target: dopaminergic D3 receptor (Homo sapiens)
Assay: Binding assay D3 (h), [3H]methyl-spiperone, CHO cells
Set-up: expressed in transfected cells; host or cells: CHO cells
Settings: read-out: D3 [%]
Quantity measured: inhibition at 1 µM (%)
Expressed in %, but write only the number.

Consider the reported inhibition at 1 µM for these compounds:
> print(dat)
                           smiles.structure   quantity.measured  reported
1  Cc1c(S(=O)(=O)NCCCCN2CCN(c3nsc4ccccc34)CC2)sc2ccc(F)cc12  inhibition at 1 µM        74
2  CC(C)(C)c1ccc(S(=O)(=O)NCCCN2CCN(c3nsc4ccccc34)CC2)cc1  inhibition at 1 µM        96
3  Cc1cccc(S(=O)(=O)NCCCCN2CCN(c3nsc4ccccc34)CC2)c1  inhibition at 1 µM        98
4  O=S(=O)(NCCCN1CCN(c2cccc3c2OCCO3)CC1)c1ccc(-c2ccccc2)cc1  inhibition at 1 µM        76
5  N#Cc1ccc(S(=O)(=O)NCCCCN2CCC(c3noc4cc(F)ccc34)CC2)cc1  inhibition at 1 µM       103
6  O=S(=O)(NCCCN1CCN(c2nsc3ccccc23)CC1)c1ccc2cc(Cl)ccc2c1  inhibition at 1 µM        63

INPUT: Query (compound): Cc1cccc(S(=O)(=O)NCCCN2CCN(c3cccc4[nH]c(=O)[nH]c34)CC2)c1 ; field requested: inhibition at 1 µM
OUTPUT: 94

INPUT: Fill blank: measured inhibition at 1 µM of the compound O=S(=O)(NCCCN1CCN(c2nsc3ccccc23)CC1)c1ccc(Br)cc1 is ____.
OUTPUT: 98

----------
Test system: adrenergic α1 receptor
Assay: Binding assay α1 (non-selective), [3H]prazosin, rat cerebral cortex
Conditions: percent inhibition of control specific binding; compounds tested at 1×10^−6 M
Catalogue of molecules with associated α1 [%]
// note: answer is a bare numeric in %

> print(dat)
                                   molecule  uom  reported
1  O=S(=O)(NCCCCN1CCC(c2noc3cc(F)ccc23)CC1)c1cccc(F)c1 [Compound 107]    %       100

INPUT: API: value(readout=α1 [%], system=adrenergic α1 receptor) for record O=S(=O)(NCCCN1CCN(c2nsc3ccccc23)CC1)c1ccc2ccccc2c1 [Compound 6]
OUTPUT: 95

INPUT: Recall the recorded α1 [%] for O=S(=O)(NCCCN1CCN(c2nsc3ccccc23)CC1)c1cccc(Br)c1 [Compound 253] with adrenergic α1 receptor and state it.
OUTPUT: 97

INPUT: I'm curious: which α1 [%] was measured for O=S(=O)(NCCCCN1CCN(c2nsc3ccccc23)CC1)c1cnc2ccccn12 [Compound 246] tested on adrenergic α1 receptor?
OUTPUT: 99

Source listed as patent US8822517B2.
